Exercise: for every item that follows, state its recorded pIC50.
Measurement Target: MMP 13 (Homo sapiens, UniProt P45452)
Protocol: MMP 13 inhibition (IC50 / manual assay; method not described)
Type: biochemical
Details: read-out: MMP 13 IC 50
The scale used: pIC50 is minus the common logarithm of the concentration in molar units.

Request: Which pIC50 value belongs to CCCC(Cc1ccc(OCCN2CCOCC2)cc1)(C(=O)NO)S(=O)(=O)c1ccc(OC)cc1 (stereo not drawn) [Example 35] ?
Result: 7.32

Request: Which pIC50 value belongs to COc1ccc(S(=O)(=O)C(C)(CC=C(C)C)C(=O)NO)cc1 (stereo not drawn) [Example 13] ?
Result: 7.85

Request: Which pIC50 value belongs to COc1ccc([S+]([O-])C(C)(CC=C(C)C)C(=O)NO)cc1 (stereo not drawn) [Example 6] ?
Result: 7.81

Request: Which pIC50 value belongs to COc1ccc(S(=O)(=O)C(C)(CC2CCCCC2)C(=O)NO)cc1 (stereo not drawn) [Example 16] ?
Result: 7.62

Request: Which pIC50 value belongs to CCCCCC#CCC(Cc1cccnc1)(C(=O)NO)S(=O)(=O)c1ccc(F)cc1 (stereo not drawn) [Example 77] ?
Result: 6.77

Request: Which pIC50 value belongs to CCCCCC#CCC(Cc1cccnc1)(C(=O)NO)S(=O)(=O)c1ccc(OC)cc1 (stereo not drawn) [Example 74] ?
Result: 8.37

Request: Which pIC50 value belongs to COc1ccc(S(=O)(=O)C(CCCc2ccccc2)(CCCc2ccccc2)C(=O)NO)cc1 [Example 57] ?
Result: 6.72

Request: Which pIC50 value belongs to COc1ccc(S(=O)(=O)C2(C(=O)NO)CCN(Cc3cccc(OC)c3)CC2)cc1 [Example 84] ?
Result: 8.70

Request: Which pIC50 value belongs to COc1ccc(S(=O)(=O)C(C)(Cc2ccc(OCCCN3CCN(c4cccc(Cl)c4)CC3)cc2)C(=O)NO)cc1 (stereo not drawn) [Example 23] ?
Result: 8.40

Request: Which pIC50 value belongs to COc1ccc(S(=O)(=O)C2(C(=O)NO)CCN(CCOc3ccccc3)CC2)cc1 [Example 107] ?
Result: 8.60

Request: Which pIC50 value belongs to CCN(CC)CCOc1ccc(CC(C)(C(=O)NO)S(=O)(=O)c2ccc(-c3ccco3)cc2)cc1 (stereo not drawn) [Example 32] ?
Result: 9.00

Request: Which pIC50 value belongs to CC#CCC(CC#CC)(C(=O)NO)S(=O)(=O)c1ccc(OC)cc1 [Example 72] ?
Result: 9.00

Request: Which pIC50 value belongs to COc1ccc(S(=O)(=O)C(C/C=C(\C)CCC=C(C)C)(Cc2ccc(OCCN3CCOCC3)cc2)C(=O)NO)cc1 (stereo not drawn) [Example 26] ?
Result: 8.49

Request: Which pIC50 value belongs to CCCCCC#CCC(CC#CCCCCC)(C(=O)NO)S(=O)(=O)c1ccc(OC)cc1 [Example 71] ?
Result: 7.89

Request: Which pIC50 value belongs to COc1ccc(S(=O)(=O)C2(C(=O)NO)CCN(CC=C(C)C)CC2)cc1 [Example 89] ?
Result: 8.15

Request: Which pIC50 value belongs to COc1ccc(S(=O)(=O)C(C)(Cc2cccc(OCCN3CCCCC3)c2)C(=O)NO)cc1 (stereo not drawn) [Example 22] ?
Result: 8.60

Request: Which pIC50 value belongs to COc1ccc(S(=O)(=O)C2(C(=O)NO)CCN(Cc3ccc(F)cc3)CC2)cc1 [Example 99] ?
Result: 8.62

Request: Which pIC50 value belongs to COc1ccc(S(=O)(=O)C(C)(Cc2ccc(Br)cc2)C(=O)NO)cc1 (stereo not drawn) [Example 51] ?
Result: 7.88

Request: Which pIC50 value belongs to CCCCCCC(Cc1ccc(OCCN2CCCCCC2)cc1)(C(=O)NO)S(=O)(=O)c1ccc(OC)cc1 (stereo not drawn) [Example 36] ?
Result: 7.68

Request: Which pIC50 value belongs to COc1ccc(S(=O)(=O)C(C)(CC=C(C)CCC=C(C)C)C(=O)NO)cc1 (stereo not drawn) [Example 15] ?
Result: 8.40

Request: Which pIC50 value belongs to COc1ccc(S(=O)(=O)C2(C(=O)NO)CCN(C(C)C)CC2)cc1 [Example 96] ?
Result: 7.47

Request: Which pIC50 value belongs to CCCCC[C@@H](C(=O)NO)[S@@+]([O-])c1ccc(OC)cc1 (stereo in doubt) [Example 81b] ?
Result: 7.80

Request: Which pIC50 value belongs to CCCCOc1ccc(S(=O)(=O)C2(C(=O)NO)CCN(Cc3ccccc3)CC2)cc1 [Example 98] ?
Result: 8.92

Request: Which pIC50 value belongs to CCCCC[C@H](C(=O)NO)[S@+]([O-])c1ccc(OC)cc1 (stereo in doubt) [Example 81a] ?
Result: 7.36

Values were extracted from patent EP0970046B1.
